Target: T1, CRBN, Q96SW2;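 further: pooled lentiviral library of zinc finger degron-EGFP fusions in mCherry-positive Jurkat cells, FACS-sorted after compound exposure, with degron abundance counted by next-generation sequencing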
T1 chain: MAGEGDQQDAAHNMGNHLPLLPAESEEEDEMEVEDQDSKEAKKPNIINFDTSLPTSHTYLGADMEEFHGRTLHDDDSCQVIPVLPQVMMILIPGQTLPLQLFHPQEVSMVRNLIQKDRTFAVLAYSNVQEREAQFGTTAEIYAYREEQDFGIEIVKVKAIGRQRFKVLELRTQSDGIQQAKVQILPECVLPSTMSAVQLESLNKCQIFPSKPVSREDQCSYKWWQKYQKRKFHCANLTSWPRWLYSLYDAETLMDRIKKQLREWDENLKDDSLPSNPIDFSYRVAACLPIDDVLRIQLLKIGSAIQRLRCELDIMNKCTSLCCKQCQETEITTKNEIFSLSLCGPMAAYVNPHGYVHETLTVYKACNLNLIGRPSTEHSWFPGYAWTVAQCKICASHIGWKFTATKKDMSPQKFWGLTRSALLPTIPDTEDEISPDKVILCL
Test: log2 fold change of degron read counts, EGFP-low vs EGFP+ sorted cells (limma voom), compound-induced degradation; higher = more compound-induced degradation of the degron-EGFP fusion; degrons are variants of IKZF1/3 zinc finger 2; compound dose not given here
Details: Jurkat; 18 h; compound: compound 22 (5-morpholino-thalidomide)
Over roughly 8,300 sequences, “log2 fold change of degron read counts, EGFP-low vs EGFP+ sorted cells (limma voom), compound-induced degradation” has its median near -1.1; the highest 2% begin near 3.2. What follows is part of a selection rich in the highest values, with near analogues and random picks from the rest.
Parameter threshold = 2. Response is True when log2 fold change of degron read counts meets or exceeds it, else False.

IN: Assess whether reported log2 fold change of degron read counts for FVCEQCGAGFTQKGNLLRHIKL [46F_47V_49E_50Q_52G_53A_54G_55F_67L_, Q9UKT9] sits at 2 or higher.
OUT: False

IN: Assess whether reported log2 fold change of degron read counts for FDCPVCGASFTQKGNLLRHIKL [46F_47D_49P_50V_52G_53A_54S_55F_67L_, Q9UKT9] sits at 2 or higher.
OUT: False

IN: Assess whether reported log2 fold change of degron read counts for FFCPICGHVFTQKGNLLRHIKL [46F_47F_49P_50I_52G_53H_54V_55F_67L_, Q9UKT9] sits at 2 or higher.
OUT: False

IN: Assess whether reported log2 fold change of degron read counts for FFCPVCGASFTQKGNLLRHIKL [46F_47F_49P_50V_52G_53A_54S_55F_67L_, Q9UKT9] sits at 2 or higher.
OUT: True

IN: Assess whether reported log2 fold change of degron read counts for LWCEICGFQCTQKGNLLRHIKL [46L_47W_49E_50I_52G_53F_54Q_55C_67L_, Q9UKT9] sits at 2 or higher.
OUT: True

IN: Assess whether reported log2 fold change of degron read counts for LFCEICGFQCTQKGNLLRHIKL [46L_47F_49E_50I_52G_53F_54Q_55C_67L_, Q9UKT9] sits at 2 or higher.
OUT: True

IN: Assess whether reported log2 fold change of degron read counts for LTCPICGFTCTQKGNLLRHIKL [46L_47T_49P_50I_52G_53F_54T_55C_67L_, Q9UKT9] sits at 2 or higher.
OUT: True

IN: Assess whether reported log2 fold change of degron read counts for FDCPICGAQFTQKGNLLRHIKL [46F_47D_49P_50I_52G_53A_54Q_55F_67L_, Q9UKT9] sits at 2 or higher.
OUT: False

IN: Assess whether reported log2 fold change of degron read counts for FWCPQCGAKFTQKGNLLRHIKL [46F_47W_49P_50Q_52G_53A_54K_55F_67L_, Q9UKT9] sits at 2 or higher.
OUT: True

IN: Assess whether reported log2 fold change of degron read counts for FFCEICGHQFTQKGNLLRHIKL [46F_47F_49E_50I_52G_53H_54Q_55F_67L_, Q9UKT9] sits at 2 or higher.
OUT: False
